Assay Info: Oral pharmacokinetics in mice (PEG400)
Type: in vivo
Assay Conditions: mouse, blood; 100 mg/kg oral gavage in PEG400, female Swiss-Webster mice
Below: a set of entries, each annotated with reported Cmax.
Number plus unit, in that order.

>>> observed_measurement("O=C(NCc1ccncc1)C12CC3CC(C1)CC(c1ccc(Cl)cc1)(C3)C2 [Compound 62]")
"55.8 µM"

For the next question, use this compound.
Cmax reading for CN1CCCC1CCNC(=O)C12CC3CC(C1)CC(c1ccc(Cl)cc1)(C3)C2 (centres unmarked) [Compound 57] : 3.8 µM

---

Below: a set of entries, each annotated with reported Cellular S1P (% inhibition).
Test system: endogenous SK in MDA-MB-231 human breast carcinoma cells
Assay Info: Intact cell SK assay, conversion of [3H]sphingosine to [3H]S1P
Type: cell-based
Assay Conditions: MDA-MB-231 cells, 20 μg/ml compound
Excerpt: The cells take up the exogenous [^3H]sphingosine and convert it to [^3H]S1P through the action of endogenous SK. The resulting [^3H]S1P is isolated via charge-based separation as indicated above. […] For potency studies, MDA-MB-231 cells were exposure to varying concentrations of a test Compound and then assayed for conversion of [^3H]sphingosine to [^3H]S1P.
Numbers only here, please. The scale is %.

Cellular S1P (% inhibition) reading for `O=C(NCCc1ccncc1)C12CC3CC(CC(C3)C1)C2` : 39

---

Below: a set of entries, each annotated with reported AUC(0-inf).
Assay Info: Oral pharmacokinetics in mice (PEG400)
Format: in vivo
Assay Conditions: mouse, blood; 100 mg/kg oral gavage in PEG400, female Swiss-Webster mice; read-out: AUC0→∞ (μM * h)
Numbers only here, please. The scale is µM·h.

>>> observed_measurement("O=C(NCc1ccncc1)C12CC3CC(C1)CC(c1ccc(Cl)cc1)(C3)C2")
452

For the next question, use this molecule.
AUC(0-inf) reading for CN1CCCC1CCNC(=O)C12CC3CC(C1)CC(c1ccc(Cl)cc1)(C3)C2 (centres unmarked) : 111

---

System: MCF-10A non-transformed human breast epithelial cells
Assay Info: Cytotoxicity, SRB binding assay
Format: cell-based
Assay Conditions: inhibition of cell proliferation, 48 h, read-out: MCF-10A IC50
I'd appreciate it if you marked entries Yes when IC50 is lower than 9 µM and No when it is not.

>>> category("CC(NC1CCN(C)CC1)C12CC3CC(CC(c4ccc(Cl)cc4)(C3)C1)C2 (stereo not shown) [Compound 107]")
"Yes"
>>> category("O=C(Nc1ccc(O)cc1)C12CC3CC(CC(C3)C1)C2 [Compound 5]")
"No"
>>> category("CC(=O)C12CC3CC(C1)CC(c1ccc(Cl)cc1)(C3)C2 [Compound 127]")
"No"

Input: For this molecule, is IC50 lower than 9 µM? CC(=O)C12CC3CC(C1)CC(c1ccc(F)cc1)(C3)C2 [Compound 126]
Output: Yes

Input: For this molecule, is IC50 lower than 9 µM? CN1CCCC1CCNC(=O)C12CC3CC(C1)CC(c1ccc(Cl)cc1)(C3)C2 (stereo not shown) [Compound 57]
Output: Yes

Input: For this molecule, is IC50 lower than 9 µM? CC(C)(C)c1ccc(CNC(=O)C23CC4CC(C2)CC(c2ccc(Cl)cc2)(C4)C3)cc1 [Compound 13]
Output: No

Origin of measurements: patent US8557800B2
